System: Sam68 (KHDRBS1)
Assay Protocol: Sam68 small-molecule binders, primary screen, biochemical, small-molecule microarray, 635 nm fluorescence (AID 1125);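 also: score merges 667 nm channel intensity with signal to noise over triplicate slides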
Test Settings: small-molecule microarray binding, higher = more signal
Outcome Measure: composite z-score
One number for each entry.

COC(=O)[C@@H]1CC[C@@H](C)[C@H](c2ccc(Br)cc2)N1 : -0.8
O=C1[C@H]2[C@H]3[C@H](O)[C@H](O)CC(=NOC[C@@H](O)COCc4ccco4)[C@H]3CC[C@H]2C(=O)N1Cc1ccccc1 : -0.333

List reported composite z-score for each of these compounds:
1. COc1ccc(O[C@H]2C=C[C@@H](c3ccccc3)O[C@@H]2CON=CC[C@@H]2C=C[C@H](OC(C)=O)[C@@H](COC(C)=O)O2)cc1
2. O=C1C[C@@H](O)[C@@H](O)[C@@H]2[C@@H]3C(=O)N(Cc4ccc5c(c4)OCO5)C(=O)[C@@H]3CC[C@H]12
3. CCOC(=O)[C@H](CC(C)C)NC(=O)CCC1CC(OC(=O)NCc2cccc3ccccc23)CC2(CCCC(COC(=O)NCCc3ccc(Cl)cc3)O2)O1 (stereo not given in full)
4. Cc1cc2c(nc1C)CCCCN2CC(C)ON=C[C@@H](C)[C@H](OCc1ccccc1)C(C)C (stereo not given in full)

// result
-0.176
0.416
0.456
-0.465

Give composite z-score for each listed item.
1. O=C(C=Cc1ccc2c(c1)OCO2)c1ccc(F)cc1
2. Cc1ccc(S(=O)(=O)NC(CCc2ccccc2)CC(=O)C(C)(C)C)cc1 (stereo not given)
3. CCOC(=O)[C@H](CC(C)C)NC(=O)CCC1CC(OC(=O)NCc2cccc3ccccc23)CC2(CCCC(COC(=O)NCc3ccncc3)O2)O1 (stereo not given in full)
4. O=C1[C@H]2[C@H]3[C@H](O)[C@H](O)CC(=NO[C@@H]4O[C@H](CO)[C@@H](O)[C@H](O)[C@H]4O)[C@H]3CC[C@H]2C(=O)N1c1cccc(Oc2ccccc2)c1
5. CO[C@H]1COC(=O)[C@@H]2CCCN2C(=O)CC=C[C@@H](C)[C@H](OC)COC(=O)[C@@H](OCc2ccccc2)C=C[C@@H]1C
6. CC(C)CON=C1C[C@@H](O)[C@@H](O)[C@@H]2[C@@H]3C(=O)N(c4cccc(Oc5ccccc5)c4)C(=O)[C@@H]3CC[C@@H]12

// result
1: -0.21; 2: 0.93; 3: 1.29; 4: 0.88; 5: -0.11; 6: 1.17

# per-item lookup of composite z-score; items listed below
1. CC(C)(C)N1C(=O)[C@H]2[C@H]3[C@H](O)[C@H](O)CC(=NO[C@@H]4O[C@H](CO)[C@@H](O)[C@H](O)[C@H]4O)[C@H]3CC[C@H]2C1=O
2. CCOC(=O)[C@H](Cc1ccccc1)NC(=O)CCC1CC(OC(=O)NCCc2ccc(F)cc2)CC2(CCCC(COC(=O)NCCOC)O2)O1 (stereo not given in full)
3. CCCCC#C[C@@H]1C=C[C@H](Oc2ccc(C(=O)OC)cc2)[C@@H](COC(=O)OCC)O1
4. O=C(NN=C1C[C@@H](O)[C@@H](O)[C@@H]2[C@@H]3C(=O)N(C4CCCCC4)C(=O)[C@@H]3CC[C@@H]12)OCc1ccccc1
5. COC(=O)CC=C[C@@H](C)[C@@H](C=NOCC[C@@H]1C=C[C@H](OC(C)=O)[C@@H](COC(C)=O)O1)NS(=O)(=O)c1ccc(C)cc1

// result
1. 0.217
2. 1.32
3. 0.769
4. -0.881
5. 0.854

Please state composite z-score for every compound in the list that follows.
1. CO[C@@H]1COC(=O)[C@@H](C)NC(=O)CC=C[C@@H](C)[C@H](NS(=O)(=O)c2ccc(C)cc2)COC(=O)[C@H](C)NC(=O)CC=C[C@H]1C
2. CCOC(=O)[C@H](Cc1ccccc1)NC(=O)CCC1CC(OC(=O)NCCc2ccc(F)cc2)CC2(CCCC(COC(=O)NCCc3ccccc3OC)O2)O1 (stereo not given in full)
3. CC(C)(C)N1C(=O)[C@H]2[C@H]3[C@H](O)[C@H](O)CC(=O)[C@H]3CC[C@H]2C1=O

// result
1: 0.643; 2: 1.12; 3: 0.892
